The measured values listed here are drawn from ChEMBL document CHEMBL2396607.

Experiment: Oral bioavailability in mouse at 3 mg/kg
Assay type: ADME, organism-based
Settings: in vivo
MEASUREMENT_NAME: bioavailability (%)

- COMPOUND: "Cc1nc(NC(=O)N2CCC[C@H]2C(N)=O)sc1-c1ccnc(C(C)(C)C(F)(F)F)c1 [ALPELISIB]"
  MEASUREMENT_NAME: "bioavailability"
  OBSERVED_VALUE: 106

---

# Lookup of reported clearance keyed by entry
Assay: Clearance in Sprague-Dawley rat at 1 mg/kg, iv
Assay type: ADME, organism-based
Design: dose 1 mg/kg, route intravenous
Settings: in vivo

- MOLECULE: "Cc1nc(NC(=O)N2CCC[C@H]2C(N)=O)sc1-c1ccnc(C(C)(C)C)c1"
  clearance [mL/min/kg]: 39
- MOLECULE: "Cc1nc(NC(=O)N2CCC[C@H]2C(N)=O)sc1-c1ccnc(C(C)(C)C(F)(F)F)c1 [ALPELISIB]"
  clearance [mL/min/kg]: 10
- MOLECULE: "Cc1nc(NC(=O)N2CCC[C@H]2C(N)=O)sc1-c1ccnc(C(C)(C)C)n1"
  clearance [mL/min/kg]: 21
- MOLECULE: "Cc1nc(NC(=O)N2CCC[C@H]2C(N)=O)sc1-c1ccnc(C2(C)CC2)n1"
  clearance [mL/min/kg]: 8
